# Tested on: MDA-MB-231 breast
# Assay remarks: NCI-60 one-dose screen, 48 h
# Condition summary: 10 µM unless noted
Compounds without any hit were thinned out: in the full panel of roughly 83,000, 20% have a hit. The source made the active and inactive calls. Rule for the calls: active = growth percent below 10; inactive = the rest.
Thanks in advance; please answer with one of these: 1 (yes) for active, 0 (no) for inactive

Please let me know the test result on file for C=C(C)[C@@H]1CC[C@]2(C(=O)N3CCN(C)CC3)CC[C@]3(C)[C@H](CC[C@@H]4[C@@]5(C)CC[C@H](OCCC#N)C(C)(C)[C@@H]5CC[C@]43C)[C@@H]12 .
0 (no)

What about this compound? Cc1ccc(C(=O)/C(=C\c2ccc([N+](=O)[O-])cc2)S(=O)Cc2ccc(F)cc2)cc1 (stereo unspecified)
0 (no)

And what about the compound NNC(=O)c1ccc(-n2nc(-c3ccccc3)c3ccccc32)cc1 ?
0 (no)

Another: C[C@H]1[C@H]2[C@H]3CC[C@@H]4[C@@]5(C)CC[C@H](O)C(C)(C)[C@@H]5CC[C@@]4(C)[C@]3(C)CC[C@]23CO[C@]1(C)[C@@H](C(=O)/C=C\c1ccco1)C3
0 (no)

Similarly, CCCCN1C=CCN(CCCC)C1 ?
0 (no)

And what about the compound NC(=NCc1ccccc1)C(N=Nc1ccccc1)C(=O)NCc1ccccc1 (stereo unspecified) ?
0 (no)

Can you check OC(c1cccc(C(F)(F)F)c1)c1cnccc1NC1CCCCC1 (stereo unspecified) next?
0 (no)

Also C=C(C)[C@@H]1CC[C@]2(C(=O)N[C@@H](Cc3ccccc3)C(=O)OC)CC[C@]3(C)[C@H](CC[C@@H]4[C@@]5(C)CCC(=O)C(C)(C)[C@@H]5CC[C@]43C)[C@@H]12 , if possible.
0 (no)

What about CN(C)c1ccc(C2C(C#N)=C(/N=C/c3ccccc3)Oc3c2ccc2ccccc32)cc1 (stereo unspecified) ?
0 (no)

Another compound to check: CC(=O)N1N=C(c2ccc(-n3ccc(C(F)(F)F)n3)c(F)c2)CC1c1ccc[nH]1 (stereo unspecified)
0 (no)

// next record COc1cc(/C=C\C(=O)O)ccc1OCc1ccccc1
0 (no)

Then this compound: Cc1ccc(C(=O)/C(=C\c2ccc([N+](=O)[O-])cc2)S(=O)Cc2ccc(Cl)cc2)cc1 (stereo unspecified)
0 (no)

Note, next up: COc1cc(/C=C\c2cc(/C=C\c3ccc(O)c(OC)c3)n(C(=O)COc3ccccc3)n2)ccc1O
0 (no)

Same question for COc1ccc(C/C(=C(\C)c2ccc(OCCN3CCCC3)cc2)c2ccc(OCCN3CCCC3)cc2)cc1 please.
0 (no)

Likewise for CCCOC(=O)N[C@H]1CCc2cc(OC)c(OC)c(OC)c2-c2ccc(SC)c(=O)cc21 ?
1 (yes)

Same read-out for COc1cc(NC(C)CCCNC(=O)CCC(=O)NCCCNCCCCCCCCNCCCNC(=O)CCC(=O)NCCCC(C)Nc2cc(OC)cc3cccnc23)c2ncccc2c1 (stereo unspecified) ?
0 (no)

Entry to check: CC(C)N1C(=O)S/C(=C2/SC(=O)N(C(C)C)C2=O)C1=O
0 (no)

Same thing, different compound: NS(=O)(=O)c1ccc(CCN2C(=O)c3cc(Cl)c(Cl)cc3C2=O)cc1
0 (no)

Moving on to O=C(/C=C/c1ccc[nH]1)c1ccc(-n2ccc(C(F)(F)F)n2)c(F)c1
0 (no)

Now consider O=Cc1cc2ccccc2nc1Oc1ccc(C(F)(F)F)cc1 and answer again.
0 (no)

CCCCCC(=O)Oc1ccc(/C(=C(/C)Cc2ccc(OC)cc2)c2ccc(OCCCN(C)C)cc2)cc1 , same question.
0 (no)

Record: CCCCCCNC(=O)Nc1ccc2cc3ccc(NC(=O)NCCCCCC)cc3nc2c1
1 (yes)

Then this compound: Oc1ccc(C2c3ccccc3Oc3ccccc32)c2cccnc12
0 (no)

Please do the same for O=C(CSc1nc2sc3c(c2c(=O)n1-c1ccc(Cl)cc1)CCCC3)Nc1nc(-c2cccc(Br)c2)cs1 as well.
0 (no)

Moving on to the next compound: N/C(=N\C(N)=N\c1nc2ccccc2s1)c1cccc(Cl)c1
0 (no)

Record: COc1cc(/C(C)=C(\c2ccc(Cl)cc2)c2ccc(OCCN(C)C)cc2)ccc1F
0 (no)

Same thing, different compound: CCCCCCCCO/N=C\c1c2c(O)c3c(O)c(C)c4c(c3c1O)C(=O)C(C)(O/C=C\C(OC)C(C)C(OC(C)=O)C(C)C(O)C(C)C(O)C(C)/C=C\C=C(\C)C(=O)N2)O4 (stereo unspecified)
0 (no)

Cool, now C/C=C(\C)C(=O)NC1=CC[C@@]2(C)C(=CCC3C2CC[C@@]2(C)C3CC[C@@H]2C(C)N(C)C)C1=O (stereo partly specified)
0 (no)

Repeat for the following compound: COc1cc2c(cc1OC)C(=O)/C(=C/c1cc(C)c(O)c(C)c1)S2
0 (no)

How about COc1ccc(-c2cnc3c(-c4cccc5cnccc45)cnn3c2)cc1 ?
0 (no)

Same read-out for O=C(Nc1ccccc1C(=O)N/N=C(\c1ccccc1)c1ccccn1)c1ccc(F)cc1 ?
0 (no)

Now the compound O=C1c2c(c3c4cccc(F)c4[nH]c3c3ccc4ccccc4c23)C(=O)N1O
0 (no)

How about this compound: c1ccc2c(-c3nccs3)c[nH]c2c1
0 (no)

Lookup N#C/C(=C\c1ccc(C(F)(F)F)cc1)c1cc2ccccc2[nH]1
0 (no)

Here is the next compound: N#C/C(=C\c1ccc([N+](=O)[O-])s1)c1nc2cc(Br)ccc2s1
1 (yes)

Again, but for Cc1nn(-c2ccccc2)c(Cl)c1/C=N\N=c1/sc2ccccc2n1C
0 (no)

----------
# System: EKVX NSCLC
# Assay remarks: NCI-60 one-dose screen, 48 h (100 = growth as untreated, 0 = no growth, -100 = all killed)
# Condition summary: 10 µM unless noted
About 83,000 compounds went through this panel and 20% of them were active in at least one assay; those are over-represented in the sample as a whole.
Lab note: compare growth with 60%, writing rule met if less and rule not met if equal or more.

Is growth of Cc1c2cc[nH]c(=O)c2c(C)c2c1[nH]c1cc(OCCN3CCN(C)CC3)ccc12 strictly below 60%?
rule met

Note, next up: O=C(Cn1c(C(=O)c2ccccc2)nc2ccccc21)c1ccc(F)cc1
rule not met

Field entry: S=c1cc(S)c2cc(Br)ccc2[nH]1
rule not met

Proceed to Cn1ccnc1C(=O)/C=C/c1ccc(CC(=O)NC2CCCCC2)cc1
rule not met

Lookup O=C1c2ccc3c4c(ccc(c24)C(=O)N1CCCNCc1ccccc1F)C(=O)N(CCCNCc1ccccc1F)C3=O
rule met

One more compound: COc1ccc(C(=O)c2nc3ccccc3n2CC(=O)c2ccc(F)cc2)cc1
rule not met

Repeat for the following compound: O=C(CCN1CCCC1)Nc1ccc2c(NCCCc3ccccc3)c3ccccc3nc2c1
rule met

Then what about the compound Cc1ccc(S(=O)(=O)Nn2c3c(cc(-c4nc5ccccc5s4)c2=O)CCCCCC3)cc1 ?
rule not met

----------
# System: SNB-19 CNS
# Assay remarks: NCI-60 one-dose screen, 48 h (100 = growth as untreated, 0 = no growth, -100 = all killed)
# Condition summary: 10 µM unless noted
About 83,000 compounds went through this panel and 20% of them were active in at least one assay; those are over-represented in the sample as a whole. Activity calls are given as the source filed them. The calls were made as follows: active = growth percent below 10; inactive = the rest.
Parameter: growth

Consider the compound CCOC(=O)[C@@H](C)C[C@H](Cc1ccccc1)NC(=O)c1csc([C@@H](C[C@H](C(C)C)N(C)C(=O)[C@@H](NC(=O)[C@H]2C[C@H](O[Si](C)(C)C(C)(C)C)CCN2C)C(C)C)OC(C)=O)n1 and give its measured growth.
5.09% [9.25 µM] (active)

Lookup CCCCCN1C=C/C(=C\C(=O)N(C)c2ccccc2Br)c2ccccc21
94.6% (inactive)

Also check C=C1C(=O)O[C@H]2[C@H]1CC/C(CNC(=O)C(C)c1ccc(CC(C)C)cc1)=C\CC[C@@]1(C)O[C@@H]21 (some centres not stated)
48.9% (inactive)

What do you get for CCCCC[n+]1ccc(SCC(=O)N(C)c2ccc(Oc3ccccc3)cc2)c2ccccc21 ?
89.1% (inactive)

Here is the next compound: CCCCCCCCO/N=C\c1c2c(O)c3c(O)c(C)c4c(c3c1O)C(=O)C(C)(O/C=C\C(OC)C(C)C(OC(C)=O)C(C)C(O)C(C)C(O)C(C)/C=C\C=C(\C)C(=O)N2)O4 (configuration not stated)
29.2% (inactive)

Now this one: CC(=O)Nc1ccc(-n2cnc3cc(-c4ccc(OCCN5CCCCC5)cc4)ccc32)cc1
88% (inactive)

One more compound: O=[N+]([O-])CC(c1ccccc1F)c1c[nH]c2ccccc12 (configuration not stated)
80.5% (inactive)

----------
# Test system: A498 renal
# Assay remarks: NCI-60 one-dose screen, 48 h (100 = growth as untreated, 0 = no growth, -100 = all killed)
# Condition summary: 10 µM unless noted
# Procedure: Growth inhibition of the A498 human tumor cell line is measured as a screen for anti-cancer activity. Cells are grown in 96 well plates and exposed to the test compound for 48 hours. Compounds are tested at a single concentration, which is 10^-5 M for most compounds. The reported endpoint is percent growth (GI% or GIPRCNT), where numbers from 0 - 100% represent growth inhibition, and numbers from -100% - 0 represent cell death. For example, a value of 40 represents 60% growth inhibition. […]
About 83,000 compounds went through this panel and 20% of them were active in at least one assay; those are over-represented in the sample as a whole.
Sorting guide: entries reporting growth beneath 80% go in the y pile, the rest go in the n pile.

Input O=Cc1ccc(-c2cn3ccnc3c(-c3ccc4ncn(Cc5ccccc5)c4c3)n2)cc1 ; condition: growth strictly below 80%. Does it hold?
n

Now the same for Cc1cc2cc3ccc(N(C)C)cc3nc2cc1N
y

Continue with COc1ccc(OC)c(CCn2cncc2-c2c[nH]c3ccccc23)c1
y

Moving on to Fc1ccc(-c2cn3c(nc4ccccc43)c(-c3ccccc3)n2)cc1
n

Cc1cccc(C)c1N=c1oc2ccc(Cl)cc2nc1-c1ccccc1O ?
n

Now the same for OC(c1cccc(C(F)(F)F)c1)c1cnccc1NC1CCCCC1 (stereo not given)
y

Same question for Cc1nn(-c2ccccc2)c(Cl)c1/C=N\N=c1/sc2ccccc2n1C please.
n

And the next one, CCOC(=O)c1cc(C(=O)c2ccc(OC)c(OC)c2)n2ccc(/C=C/c3cc[n+](CC(=O)c4ccc(OC)c(OC)c4)cc3)cc12 ?
n

// repeat for COc1ccc(C(=O)c2nc3ccccc3n2CC(=O)c2ccc(Cl)cc2)cc1 and report
y

Next: Cc1c2cc[nH]c(=O)c2c(C)c2c1[nH]c1cc(OCCN3CCN(C)CC3)ccc12
y

Where do these numbers come from? They come from PubChem BioAssay (NCI).
